Reported pIC50 against RORc (Homo sapiens, UniProt P51449), gathered from multiple publications, appears below.
pIC50: −log10 of the molar value.
Threshold rule: pIC50 greater than or equal to 7 is YES; below that, NO.

INSERT INTO assay_data (compound, classification) VALUES
  ('Cc1ncn(-c2cncc([C@]34CC[C@H](c5cc(-c6c(F)cccc6F)nnc53)C4(C)C)n2)n1', 'YES'),
  ('CCN(Cc1ccc(-c2ccc(S(C)(=O)=O)cc2)s1)S(=O)(=O)Cc1ccccc1', 'NO'),
  ('Cc1nnc(NC[C@@]23CC[C@@H](c4cc(-c5c(F)cccc5F)nnc42)C3(C)C)o1', 'NO');

### Prompt Is reported pIC50 greater than or equal to 7 here: CNC(=O)COC1(c2cc(F)c(CN3[C@@H](C)CC[C@H](c4ccccc4)S3(=O)=O)cc2F)COC1
### Response YES

### Prompt # bool: pIC50 of CC1(C)[C@H]2C(=O)C[C@]1(C)c1nnc(-c3ccccc3F)cc12 >= 7
### Response NO

### Prompt Is pIC50 at least 7? Consider C[C@H]1CC[C@H](c2ccccc2)S(=O)(=O)N1Cc1ccc(C2(CCC(=O)O)CCOCC2)cc1F
### Response YES

### Prompt Test whether the compound CC(C)CN(c1cccc(Cl)c1)S(=O)(=O)c1cccc(N2CCN(S(C)(=O)=O)CC2)c1 records pIC50 of 7 or higher.
### Response NO

### Prompt Could you verify whether the entry CC(C)c1nnc([C@@]23CC[C@@H](c4cc(-c5c(F)cccc5F)nnc42)C3(C)C)o1 shows pIC50 of no less than 7?
### Response NO

### Prompt Is the recorded value of pIC50 equal to or greater than 7 for this compound? CC1(C)[C@H]2CC[C@]1(c1ccnc(-c3ccc(=O)[nH]c3)n1)c1nnc(-c3c(F)cccc3F)cc12
### Response YES

### Prompt Assess whether reported pIC50 for C[C@H]1CC[C@H](c2ccccc2)S(=O)(=O)N1Cc1cc(F)c(C2(N[S+]([O-])C(C)(C)C)COC2)cc1F (stereo partly drawn) sits at 7 or higher.
### Response YES

### Prompt # bool: pIC50 of COc1cnc([C@@]23CC[C@@H](c4cc(-c5c(F)cccc5F)nnc42)C3(C)C)o1 >= 7
### Response YES

### Prompt Evaluate C[C@H](O)c1nnc(-c2ncc(F)c([C@@]34CC[C@@H](c5cc(-c6c(F)cccc6F)nnc53)C4(C)C)n2)[nH]1 : pIC50 at minimum 7?
### Response YES

### Prompt Is the recorded value of pIC50 equal to or greater than 7 for this compound? COCC(=O)N(CCC#N)C[C@@]12CC[C@@H](c3cc(-c4c(F)cccc4F)nnc31)C2(C)C
### Response NO

### Prompt Check this compound for pIC50 at or above 7: C[C@H](CO)NC(=O)c1cncc([C@@]23CC[C@@H](c4cc(-c5c(F)cccc5F)nnc42)C3(C)C)n1
### Response YES

### Prompt Is reported pIC50 greater than or equal to 7 here: CC[C@H](O)c1n[nH]c(-c2cccc([C@@]34CC[C@@H](c5cc(-c6c(F)cccc6F)nnc53)C4(C)C)n2)n1
### Response YES

### Prompt Determine whether this compound has pIC50 no lower than 7: CC1(C)[C@H]2CC[C@]1([C@@H]1CN(C(=O)C(O)CO)CCO1)c1nnc(-c3c(F)cccc3F)cc12 (stereo partly drawn)
### Response NO

### Prompt Given the entry CC(=O)Nc1cccc([C@@]23CC[C@@H](c4cc(-c5c(F)cccc5F)nnc42)C3(C)C)n1 , answer whether its pIC50 meets or surpasses 7.
### Response YES
